Measured values drawn from PubChem BioAssay (NCI) for this set.

tested on: HT29 colon; assay: NCI-60 one-dose screen, 48 h (100 = growth as untreated, 0 = no growth, -100 = all killed); settings: 10 µM unless noted
This is part of a sample that, as a whole, favours compounds with a hit. Of some 83,000 tested, about 20% had one in any assay.
growth: recorded values
assay readout: growth (%)

molecule: COc1ccc(-c2c3c(cn2Cc2cccc(OC)c2)-c2oncc2CCC3)cc1
assay readout: growth
value units: %
reading: 109
--
molecule: C=C(C=O)[C@@H]1CC[C@]2(C(=O)O)CC[C@]3(C)C(CC[C@@H]4[C@@](C)(CCC#N)[C@H](C(=C)C=O)CC[C@]43C)[C@@H]12 (stereo not given in full)
assay readout: growth
value units: %
reading: 0.538
--
molecule: COc1ccc2[nH]cc(-c3nn4cc(-c5ccncc5)nc4s3)c2c1
assay readout: growth
value units: %
reading: 66.6
--
molecule: Clc1ccc2c(N/N=C/c3c[nH]c4ccccc34)ccnc2c1
assay readout: growth
value units: %
reading: -72.3
--
molecule: N#Cc1c(-c2cccs2)cc(-c2cnccn2)nc1SCC(=O)N/N=C/c1ccc(Cl)cc1
assay readout: growth
value units: %
reading: 104

* * *

system: MALME-3M melanoma; test: NCI-60 one-dose screen, 48 h; settings: 10 µM unless noted
About 83,000 compounds went through this panel and 20% of them were active in at least one assay; those are over-represented in the sample as a whole. Active and inactive are the calls of the source. Rule for the calls: active = growth percent below 10; inactive = the rest.
Outcomes: 1 = active, 0 = inactive

compound: Cc1ccc(S(=O)(=O)c2nc(-c3ccc(F)cc3)oc2S(C)(=O)=O)cc1
assigned category: 1

compound: COc1cc(C(=O)c2cc(C(C)=O)c3ccc(C)cn23)cc(OC)c1OC
assigned category: 0

compound: Cc1[nH]c(C(=O)Nc2ccccc2OCc2cccc(C(=O)NC3CCNC3)c2)c(Cl)c1Cl (stereo not given)
assigned category: 0

compound: Cc1ccc(S(=O)(=O)NCCCNc2nccc(-c3[nH]c(-c4ccccc4)nc3-c3ccc(F)c(O)c3)n2)cc1
assigned category: 1

compound: C#CCn1cc(/C=N/Nc2nc(-c3ccc(Br)cc3)cs2)c2ccccc21
assigned category: 0

compound: Cn1cc(C2=C(c3coc4cc(Br)ccc34)C(=O)NC2=O)c2ccccc21
assigned category: 0

compound: O=C(CSc1nnc(-c2ccc(Cl)cc2)n1-c1ccccc1)Nc1ccccc1Cl
assigned category: 0

compound: C#C[C@]1(O)CC[C@H]2[C@@H]3CC=C4c5sc(Nc6ncccc6C)nc5CC[C@]4(C)[C@H]3CC[C@@]21C
assigned category: 1

compound: Nc1ccc(Nc2ncnc3sc4c(c23)CCN(Cc2ccccc2)C4)cc1
assigned category: 0

compound: CC(C)(O)c1cncc(-c2ccc3ncc(C#N)c(N4CCc5cc(F)c(Cl)cc54)c3c2)c1
assigned category: 1

compound: CC1CCN(CC(=O)Nn2c(COc3ccccc3)nc3ccccc3c2=O)CC1
assigned category: 0

compound: Cc1ccc(-c2csc(N/N=C/c3cccs3)n2)cc1
assigned category: 0

compound: CNC(=O)Nc1ccc(Nc2cc(-c3ccc(-n4cccn4)cc3)[nH]n2)c(C)c1
assigned category: 0

compound: O=C1/C(=C/c2cc(F)cc(F)c2)Cc2cc3c(cc21)OCO3
assigned category: 0

compound: CCN(CC)c1ccc(/C=N/NC(=O)c2ccc(S(N)(=O)=O)cc2)c(O)c1
assigned category: 1

compound: O=C(CCCCCCNC(=O)C(O)(O)C(F)(F)F)Nc1ncc(-c2ccccc2)s1
assigned category: 0

compound: CC(=C(c1ccc(OCCN2CCCC2)cc1)c1ccc(OCCN2CCCC2)cc1)c1ccc(Cl)cc1
assigned category: 1

compound: Cc1[nH]c(C(=O)Nc2ccc(C(=O)NCC3CCNCC3)cc2OC(C)C)c(Cl)c1Cl
assigned category: 0

compound: CC(=O)Nc1cc(N2CCOCC2)c2nc(NC(=O)c3[nH]c(C)c(Cl)c3Cl)sc2c1
assigned category: 0

compound: CCN(CC)c1ccc(/C=N/NC(=O)c2ccc(S(N)(=O)=O)cc2)cc1
assigned category: 1

* * *

test system: SNB-19 CNS; assay: NCI-60 one-dose screen, 48 h; conditions: 10 µM unless noted
The panel holds about 83,000 compounds, 20% with a hit somewhere; the sample as a whole holds those more often. The source made the active and inactive calls. The calls were made as follows: active = growth percent below 10; inactive = the rest.
Outcomes: true (active), false (inactive)

structure: COc1cc(C(C)=C(c2ccc(OCCN(C)C)cc2)c2ccc(OCCN(C)C)cc2)ccc1F
assigned category: false
//
structure: CN1CCN(c2ccc(Nc3nc(NCCNS(=O)(=O)c4ccc5ccccc5c4)c4sccc4n3)cc2)CC1
assigned category: false
//
structure: O=C(CN1CCN(c2cc(=O)[nH]c3ccc(F)cc23)CC1)N(c1ccccc1)c1ccccc1
assigned category: false
//
structure: Cc1nc(/N=C(N)/N=C(\N)c2cccc(Br)c2)sc1C
assigned category: false
//
structure: O=C1Nc2ccccc2/C1=C/c1ccc(OCC(=O)c2ccccc2)cc1
assigned category: false
//
structure: CCNCCOc1ccc(/C(=C(/CC)c2ccc(Cl)cc2)c2ccc(OCCCN(C)C)cc2)cc1
assigned category: true
//
structure: CC(=O)/C(N=Nc1ccc2oc(=O)ccc2c1)=C(\C)O
assigned category: false
//
structure: CN1CCN(c2ccc(Nc3nc(NCCNS(=O)(=O)c4ccc(Cl)cc4)c4sccc4n3)cc2)CC1
assigned category: false
//
structure: Cn1c(SCC(=O)c2ccc(Br)cc2)nc2ccccc2c1=O
assigned category: false
//
structure: O=C1[C@H]2Cc3c([nH]c4ccccc34)[C@H](c3ccc(Cl)cc3)N2C(=O)CN1C1CCN(CC2CCCCC2)CC1
assigned category: false
//
structure: N#Cc1nc(-c2ccc(Cl)cc2)oc1N1CCC(S(=O)(=O)N2CCOCC2)CC1
assigned category: false
//
structure: CCC(=C(c1ccc(OCCN(C)C)cc1)c1ccc(OCCN(C)C)cc1)c1ccc(Cl)cc1
assigned category: true
//
structure: CCCCCc1ccc(S(=O)(=O)Nc2cc(-c3csc(N)n3)ccc2OC)cc1
assigned category: false
//
structure: CN1CCN(c2ccc(Nc3nc(NCCCNS(=O)(=O)c4cccc(F)c4)c4sccc4n3)cc2)CC1
assigned category: false
//
structure: COc1ccc(-c2c(C(N)=O)c(N)n(Cc3nc4ccccc4[nH]3)c(=O)c2C#N)c(OC)c1
assigned category: false
//
structure: CCN(CC)c1ccc(/C=N/NC(=O)c2ccc(NS(C)(=O)=O)cc2)c(O)c1
assigned category: false
//
structure: O=C(/C=C/c1ccccc1)c1cccc(O)c1
assigned category: false
//
structure: COCCOc1ccc2ncc(C#Cc3cncc(C(=O)Nc4ccc(CN5CCN(C)CC5)c(C(F)(F)F)c4)c3)n2n1
assigned category: false
//
structure: Cc1ccc(C(=O)Nc2ccc(CNCCN3CCNCC3)c(C(F)(F)F)c2)cc1C#Cc1cnc2cccnn12
assigned category: true

* * *

tested on: A549/ATCC NSCLC; assay: NCI-60 one-dose screen, 48 h; settings: 10 µM unless noted
The panel holds about 83,000 compounds, 20% with a hit somewhere; the sample as a whole holds those more often. Calls of active or inactive are those of the source. Rule for the calls: active = growth percent below 10; inactive = the rest.
Outcomes: active, inactive

compound: COc1ccc(-c2c3c(cn2Cc2cccc(OC)c2)-c2oncc2CCC3)cc1
assigned category: inactive
--
compound: Cc1[nH]c(C(=O)Nc2ccccc2OCc2cccc(C(=O)NC3CCCNC3)c2)c(Cl)c1Cl (configuration not stated)
assigned category: active
--
compound: CC(=O)c1c([Si](C)(C)C)c2cc(C#N)ccn2c1C(=O)c1ccc(Br)cc1
assigned category: inactive
--
compound: Oc1ccc(-c2nc3ccc(/C(=N\N=C\c4ccc(Cl)cc4)c4ccccc4)cc3[nH]2)cc1
assigned category: inactive
--
compound: C#C[C@]1(O)CC[C@H]2[C@@H]3CC=C4c5sc(N(C)c6ccccc6)nc5CC[C@]4(C)[C@H]3CC[C@@]21C
assigned category: inactive
--
compound: CNC(=O)c1cc(Oc2ccc3c(c2)sc2nc(-c4ccc(N(C)C)cc4)cn23)ccn1
assigned category: inactive
--
compound: CCc1cc(O)ccc1Nc1cc(-c2ccc(-n3cccn3)cc2)[nH]n1
assigned category: inactive
--
compound: CC(=O)/C(N=Nc1ccc2oc(=O)ccc2c1)=C(\C)O
assigned category: inactive
--
compound: O=C(/C=C/c1ccc(F)cc1)Nc1cccc2cccnc12
assigned category: inactive
--
compound: O=C(Nc1cc(C(F)(F)F)cc(C(F)(F)F)c1)Nc1ccc2oc(=O)ccc2c1
assigned category: inactive
--
compound: NC1=NC2(CCCC2)N(c2ccc(S(=O)(=O)Nc3nccs3)cc2)C(N)=N1
assigned category: inactive
--
compound: C#CCOc1ccc(/C=N/Nc2nc(-c3ccc(OC)cc3)cs2)cc1
assigned category: inactive
--
compound: Nc1cc(C(=O)N/N=C\c2ccc(OC(F)F)c(OC3CCCC3)c2)nn1CC(O)c1ccccc1 (configuration not stated)
assigned category: inactive
--
compound: CC1=C(C)C(=O)C(Nc2ccc3c(c2)OCO3)=C(Br)C1=O
assigned category: inactive
--
compound: CCCCCCCCCCCC(=O)NC(C)(C)C(=O)N1CCCC1C(=O)NC(C)(C)C(=O)NC(C)(C)C(=O)N1CCCC1C(=O)NC(C)(C)C(=O)NC(C)(C)C(=O)N1CCCC1C(=O)NC(C)C(=O)NCCC(=O)NC(C)C(=O)NC(C)(C)C(=O)NC(C)(C)C(=O)NC(C)(C)C(=O)NCCC(=O)NC(C)(C)C(=O)NC(C)(C)C(=O)NC(C)(C)C(=O)NC(C)C(=O)NCCC(=O)O (configuration not stated)
assigned category: active
--
compound: COc1ccccc1/C=C/C(=O)c1nnn(-c2ccc(F)cc2)c1C
assigned category: inactive
--
compound: CN1CCN(Cc2ccc(NC(=O)c3cncc(C#Cc4cnc5ccc(OCC(F)F)nn45)c3)cc2C(F)(F)F)CC1
assigned category: active
--
compound: O=S(=O)(Oc1ccc(-c2cn3ccoc3n2)cc1)c1cccc(C(F)(F)F)c1
assigned category: inactive
--
compound: CSc1ccc(/C(=N/N=C(N)N)c2ccc(F)cc2)cc1
assigned category: inactive
--
compound: Fc1ccc2nc(-c3cnn4cccnc34)sc2c1
assigned category: inactive
--
compound: Cc1cccc(N2CCN(C3=C(Cl)C(=O)c4ncccc4C3=O)CC2)c1
assigned category: inactive
--
compound: Cn1cc(-c2nnc(N)nc2-c2c[nH]c3ccc(F)cc23)c2cc(Br)ccc21
assigned category: inactive
--
compound: Cn1ncc2c(C(=O)c3ccc(F)cc3)nc(C(C)(C)C)nc21
assigned category: inactive
--
compound: CNC(=O)c1cc(-c2ccc(NC(=S)Nc3cccc(C(F)(F)F)c3)cc2)nc2cccnc12
assigned category: inactive
--
compound: NC(=O)c1ncn2c(=O)n(CCF)nnc12
assigned category: inactive
--
compound: Cc1nc(N)sc1-c1csc(Nc2ccc(C(F)(F)F)cc2)n1
assigned category: inactive
--
compound: NC(N)=NS(=O)(=O)c1ccc(N=Nc2c(N)nn(-c3ccc([N+](=O)[O-])cc3[N+](=O)[O-])c2N)cc1
assigned category: inactive
--
compound: COc1ccc(C(=O)c2c(N)c(C#N)cn2-c2ccc(Cl)cc2Cl)cc1
assigned category: inactive
--
compound: CCCCCCNC(=O)Oc1ccc(/C(=C(/C)c2ccc(OC)cc2)c2ccc(OCCN3CCCCCC3)cc2)cc1
assigned category: inactive
--
compound: CN1CCN(c2ccc(Nc3nc(NCCCNS(=O)(=O)c4cccc5ccccc45)c4sccc4n3)cc2)CC1
assigned category: active
--
compound: C#Cc1nc(/C=C\CCCCCCC(=O)NO)cs1
assigned category: inactive
--
compound: O=c1c2cc(-c3ccc(F)cc3F)ccc2n(O)c(=O)n1-c1cccc(C(F)(F)F)c1
assigned category: active
--
compound: CN(C)c1cccc2c(S(=O)(=O)Nc3cccc(-c4csc(NC(=O)CCCCCN5CCN(CCO)CC5)n4)c3)cccc12
assigned category: inactive
--
compound: C/C(=N\NC(N)=S)c1nnn(-c2ccc([N+](=O)[O-])cc2)c1C
assigned category: inactive
--
compound: Oc1[nH]c2ccc(Cl)cc2c1N=Nc1nc(N=Nc2c(O)[nH]c3ccc(Cl)cc23)nc(N2CCCCC2)n1
assigned category: inactive
--
compound: Cc1ccc2c(n1)C(=O)C(Cl)=C(Nc1ccccc1C(=O)OC(C)(C)C)C2=O
assigned category: inactive
--
compound: COCCOc1ccc2ncc(C#Cc3cncc(C(=O)Nc4ccc(CN5CCN(C)CC5)c(C(F)(F)F)c4)c3)n2n1
assigned category: inactive
